Details: 313.15 K; 101.33 kPa; Liquid; Vibrating tube method
± gives the expanded uncertainty stated by the source.
Documented mass density across a set of molecules
# answer = value followed by unit

For orientation, consider the following solved cases.
CCn1cc[n+](C)c1.F[B-](F)(F)F [1-ethyl-3-methylimidazolium tetrafluoroborate]
1268.33 ± 1.4 kg/m3
CCn1cc[n+](C)c1.O=S(=O)([O-])C(F)(F)C(F)(F)C(F)(F)C(F)(F)F
1530.71 ± 4.6 kg/m3
CCn1cc[n+](C)c1.O=S(=O)([N-]S(=O)(=O)C(F)(F)C(F)(F)F)C(F)(F)C(F)(F)F
1577.13 ± 4.9 kg/m3

Any idea what mass density was measured for CCn1cc[n+](C)c1.O=S(=O)([N-]S(=O)(=O)C(F)(F)F)C(F)(F)F ?
1503.75 ± 4.4 kg/m3
